So I've got a bunch of binders here, and I need their EC50 of AU565 cell kill, anti-kappa-ETA'-conjugated antibody values.
- subject_of_test: human epidermal growth factor receptor 2 (HER2) (human, UniProt P04626 23-1255)
- test_name: cell-based or functional assay
The reply must contain the numeric value and, after it, the unit.

**Q:** Write down EC50 of AU565 cell kill, anti-kappa-ETA'-conjugated antibody measured for item HER2 antibody 159 (antibody, V domains shown) VH: EVQLVQSGAEVKKPGESLKISCKGSGYNFTSYWIGWVRQMPGKGLEWMGIIYPGDSDTRYSPSFQGQVTISADKSISTAYLQWSSLKASDTAMYYCARWGTYYDILTGYFNWFDPWGQGTLVTVSS VL: DIQMTQSPSSLSASVGDRVTITCRASQGISSWLAWYQQKPEKAPKSLIYAASSLQSGVPSRFSGSGSGTDFTLTISSLQPEDFATYYCQQYYIYPWTFGQGTKVEIK
**A:** 0.0349 µg/mL

**Q:** Write down EC50 of AU565 cell kill, anti-kappa-ETA'-conjugated antibody measured for item HER2 antibody 132 (antibody, V domains shown) VH: QVQLVQSGAEVKKPGASVKVSCKASGYTFTSYGISWVRQAPGQGLEWMGWISAYNGNSNYVQKFQGRVTMTTDTTTSTAYMELRSLTSDDTAVYYCAREYSYDSGTYFYYGMDVWGQGTTVTVSS VL: EIVLTQSPATLSLSPGERATLSCRASQSVSSYLAWYQQKPGQAPRLLIYDASNRATGIPARFSGSGSGTDFTLTISSLEPEDFAVYYCQQRSNWPMYTFGQGTKLEIK
**A:** 0.0394 µg/mL

Data origin, for the record: patent EP4520771A2
